tested on: Human Heme Oxygenase-1 (HMOX-1); experiment: ELISA assay to measure human heme oxygenase-1 (HMOX-1) in HepG2 lysate; type: cell-based; conditions: fold change of human HMOX1 protein levels relative to DMSO control, HepG2
observedProperty: Maximum Fold induction

## Input Can you look up the measured Maximum Fold induction of Cn1c(Nc2nc3cc(Cl)ccc3[nH]2)nc2cc(C(=O)O)ccc21 for me?
## Output 29-33

## Input Can you look up the measured Maximum Fold induction of COCCNC(=O)c1ccc2c(c1)nc(Nc1nc3ccc(OC(F)(F)F)cc3o1)n2C1CCOCC1 for me?
## Output 22-23

## Input Can you look up the measured Maximum Fold induction of CN(C)CC(=O)NCCNC(=O)c1ccc2c(c1)nc(Nc1nc3ccc(OC(F)(F)F)cc3o1)n2C for me?
## Output 14-23

## Input Can you look up the measured Maximum Fold induction of Cn1c(Nc2nc3ccc(OC(F)(F)F)cc3o2)nc2cc(C(=O)Nc3cn[nH]c3)ccc21 for me?
## Output 14-20

## Input Can you look up the measured Maximum Fold induction of COCCONC(=O)c1ccc2c(c1)nc(Nc1nc3ccc(C(F)(F)F)cc3o1)n2C for me?
## Output 31-52

## Input Can you look up the measured Maximum Fold induction of Cn1c(Nc2nc3ccc(C(F)(F)F)cc3o2)nc2cc(C(=O)NCC(O)CO)ccc21 (stereo not drawn) for me?
## Output 56-82

## Input Can you look up the measured Maximum Fold induction of Cn1c(Nc2nc3ccc(OC(F)(F)F)cc3o2)nc2cc(C(=O)NC3COC3)ccc21 for me?
## Output 30-57

## Input Can you look up the measured Maximum Fold induction of COCCNC(=O)c1ccc2c(c1)nc(Nc1nc3ccc(C(F)(F)F)cc3o1)n2C for me?
## Output 14-50

## Input Can you look up the measured Maximum Fold induction of COCCNC(=O)c1ccc2c(c1)nc(Nc1nc3c(s1)CCCC3)n2C for me?
## Output 7-12

----------
What Maximum Fold induction was measured for each of the following?
test system: Human Heme Oxygenase-1 (HMOX-1); assay: ELISA assay to measure human heme oxygenase-1 (HMOX-1) in HepG2 lysate; assay type: cell-based; conditions: fold change of human HMOX1 protein levels relative to DMSO control, HepG2

## Input Can you look up the measured Maximum Fold induction of COCCNC(=O)c1ccc2c(c1)nc(Nc1nc3ccc(OC(F)(F)F)cc3o1)n2C [Example 45] for me?
## Output 10-28

## Input Can you look up the measured Maximum Fold induction of Cn1c(Nc2nc3ccc(C(F)(F)F)cc3o2)nc2cc(C(=O)NCCOCCO)ccc21 [Example 34] for me?
## Output 31-36

## Input Can you look up the measured Maximum Fold induction of Cn1c(Nc2nc3ccc(Cl)cc3o2)nc2cc(C(=O)NCCO)ccc21 [Example 97] for me?
## Output 33-51

## Input Can you look up the measured Maximum Fold induction of COCCNC(=O)c1ccc2c(c1)nc(Nc1nc3cc(OC(F)(F)F)ccc3[nH]1)n2C [Example 14] for me?
## Output 6-25

## Input Can you look up the measured Maximum Fold induction of Cn1c(Nc2nc3ccc(C(F)(F)F)cc3o2)nc2cc(C(=O)NCCOCC(=O)O)ccc21 [Example 41] for me?
## Output 35-39

## Input Can you look up the measured Maximum Fold induction of CN(C)CCONC(=O)c1ccc2c(c1)nc(Nc1nc3ccc(C(F)(F)F)cc3o1)n2C [Example 122] for me?
## Output 51-67

## Input Can you look up the measured Maximum Fold induction of CN(C)CC(=O)NCCONC(=O)c1ccc2c(c1)nc(Nc1nc3ccccc3o1)n2C [Example 121] for me?
## Output 22-23

## Input Can you look up the measured Maximum Fold induction of Cn1c(Nc2nc3cc(OC(F)(F)F)ccc3[nH]2)nc2cc(C(=O)O)ccc21 [Example 13] for me?
## Output 6-27

## Input Can you look up the measured Maximum Fold induction of Cn1c(Nc2nc3ccc(-c4cscn4)cc3o2)nc2cc(C(=O)NCCOCCO)ccc21 [Example 134] for me?
## Output 42-70

## Input Can you look up the measured Maximum Fold induction of Cn1c(Nc2nc3ccc(F)cc3o2)nc2cc(C(=O)O)ccc21 [Example 68] for me?
## Output 16-21

## Input Can you look up the measured Maximum Fold induction of COc1ccc2nc(Nc3nc4cc(C(=O)NCCO)ccc4n3C)oc2c1 [Example 92] for me?
## Output 12-20

## Input Can you look up the measured Maximum Fold induction of Cn1c(Nc2nc3ccc(C(F)(F)F)cc3o2)nc2cc(C(=O)NOCCO)ccc21 [Example 125] for me?
## Output 32-59

## Input Can you look up the measured Maximum Fold induction of Cn1c(Nc2nc3ccc(C(F)(F)F)cc3o2)nc2cc(C(=O)O)ccc21 [Example 31] for me?
## Output 25-29

## Input Can you look up the measured Maximum Fold induction of CC1CCc2nc(Nc3nc4cc(C(=O)NOCCO)ccc4n3C)sc2C1 (centres unmarked) [Example 131] for me?
## Output 35-62

## Input Can you look up the measured Maximum Fold induction of COCCNC(=O)c1ccc2c(c1)nc(Nc1nc3ccc(OC(F)F)cc3o1)n2C [Example 63] for me?
## Output 11-15

## Input Can you look up the measured Maximum Fold induction of Cn1c(Nc2nc3ccc(OC(F)(F)F)cc3o2)nc2cc(C(=O)O)c(F)cc21 [Example 70] for me?
## Output 8-11

## Input Can you look up the measured Maximum Fold induction of Cn1c(Nc2nc3ccccc3o2)nc2cc(C(=O)NCCOCCO)ccc21 [Example 17] for me?
## Output 11-40

## Input Can you look up the measured Maximum Fold induction of COCCONC(=O)c1ccc2c(c1)nc(Nc1nc3ccccc3o1)n2C [Example 119] for me?
## Output 47-65

## Input Can you look up the measured Maximum Fold induction of O=C(O)c1ccc2c(c1)nc(Nc1nc3ccc(OC(F)(F)F)cc3o1)n2C1CCOCC1 [Example 79] for me?
## Output 27-51

## Input Can you look up the measured Maximum Fold induction of COCCNC(=O)c1ccc2c(c1)nc(Nc1nc3cc(OC(F)(F)F)ccc3[nH]1)n2CCOC [Example 76] for me?
## Output 18-20

Reference source: patent US20240051952A1
